test: xn = mol fraction of the nth substance listed, in the solute-free solvent; settings: 288.15 K; x2 = 0.1666
Decide by solubility (g/100 g solution): equal to or exceeding 0.4 means yes (1), less means no (0).

compound	classification
COC(=O)C1=C(C)NC(C)=C(C(=O)OCC(C)C)C1c1ccccc1[N+](=O)[O-] (stereo not given) + CCCO + O	yes (1)
COC(=O)C1=C(C)NC(C)=C(C(=O)OCC(C)C)C1c1ccccc1[N+](=O)[O-] (stereo not given) + CC(C)O + O	yes (1)
O=[N+]([O-])c1cc[nH]n1 + CCCO + O	yes (1)
CS(=O)(=O)c1ccc(C(O)C(CF)NC(=O)C(Cl)Cl)cc1 (stereo not given) + CC(C)O + O	no (0)

Pending compound:
(Q) Form field: solubility (g/100 g solution) at least 0.4? Entry: CC(=O)Nc1ccc(OC(=O)c2ccccc2OC(C)=O)cc1 + CC(C)O + O
(A) no (0)
